Target: T1, cynomolgus TIGIT expressed on CHO-K1 cells (cynomolgus, UniProt A0A7N9I9V4 89-312)
T1 construct: whole, on cells; also called cynomolgus TIGIT over-expressing cell line
T1 sequence (A0A7N9I9V4 entry or part of it): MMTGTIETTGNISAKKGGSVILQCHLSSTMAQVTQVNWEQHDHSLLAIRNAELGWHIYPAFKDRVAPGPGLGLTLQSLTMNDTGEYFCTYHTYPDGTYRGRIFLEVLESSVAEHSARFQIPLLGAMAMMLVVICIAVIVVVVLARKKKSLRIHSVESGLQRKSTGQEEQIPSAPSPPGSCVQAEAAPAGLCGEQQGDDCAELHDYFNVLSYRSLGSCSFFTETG
Experiment: flow cytometry on CHO-K1 cells expressing cynomolgus TIGIT
Rule: EC50 below 5 nM gives Fulfilled. Equal to or above 5 nM gives Not fulfilled.

Solved entries (count: 3):
# BINDER, CAT
records = [
    ("huTIGIT-19-1 (antibody, human IgG1, kappa, V domains shown, Humanized IgG; also called 19VH4.M9 + 19VL1.M4) VH: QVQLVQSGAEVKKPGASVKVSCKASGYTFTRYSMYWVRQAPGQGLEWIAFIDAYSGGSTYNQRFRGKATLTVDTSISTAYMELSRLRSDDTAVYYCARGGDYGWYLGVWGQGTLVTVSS VL: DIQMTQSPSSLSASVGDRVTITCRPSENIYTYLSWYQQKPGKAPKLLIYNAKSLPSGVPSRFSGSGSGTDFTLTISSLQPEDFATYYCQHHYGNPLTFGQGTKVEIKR", "Fulfilled"),
    ("huTIGIT-19-2 (antibody, human IgG1, kappa, V domains shown, Humanized IgG; also called 19VH4.M9 + 19VL1.M7) VH: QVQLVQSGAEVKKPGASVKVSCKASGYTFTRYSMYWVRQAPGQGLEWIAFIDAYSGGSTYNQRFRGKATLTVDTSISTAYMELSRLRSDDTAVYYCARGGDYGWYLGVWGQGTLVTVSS VL: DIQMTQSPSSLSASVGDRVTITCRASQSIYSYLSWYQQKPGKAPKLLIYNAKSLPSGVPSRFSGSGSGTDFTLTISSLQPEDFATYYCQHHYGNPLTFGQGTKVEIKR", "Fulfilled"),
    ("Hu1217-2-2 (anti-TIGIT positive control antibody) (antibody, V domains shown) VH: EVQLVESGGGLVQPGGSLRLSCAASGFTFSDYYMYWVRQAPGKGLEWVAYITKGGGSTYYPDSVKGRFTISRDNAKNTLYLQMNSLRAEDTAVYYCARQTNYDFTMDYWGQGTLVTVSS VL: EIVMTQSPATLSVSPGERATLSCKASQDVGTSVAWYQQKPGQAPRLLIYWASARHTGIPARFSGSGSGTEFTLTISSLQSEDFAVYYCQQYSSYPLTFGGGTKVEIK", "Not fulfilled"),
]

Determine if TIGIT-6 chimeric antibody (antibody, human IgG1, kappa, V domains shown, also called 6VH + 6VL) VH: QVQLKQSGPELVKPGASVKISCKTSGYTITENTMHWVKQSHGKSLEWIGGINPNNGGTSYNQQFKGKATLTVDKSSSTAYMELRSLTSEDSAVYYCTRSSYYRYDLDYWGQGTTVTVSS VL: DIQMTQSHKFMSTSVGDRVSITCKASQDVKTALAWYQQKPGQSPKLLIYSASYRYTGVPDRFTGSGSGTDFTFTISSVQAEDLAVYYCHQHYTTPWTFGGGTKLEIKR shows EC50 strictly lower than 5 nM.
Fulfilled

Determine if huTIGIT-19-3 (antibody, human IgG1, kappa, V domains shown, Humanized IgG; also called 19VH4.M10 + 19VL1.M4) VH: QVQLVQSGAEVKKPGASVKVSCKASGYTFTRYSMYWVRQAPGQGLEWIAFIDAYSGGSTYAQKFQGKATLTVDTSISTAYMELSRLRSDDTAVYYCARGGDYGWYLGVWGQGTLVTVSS VL: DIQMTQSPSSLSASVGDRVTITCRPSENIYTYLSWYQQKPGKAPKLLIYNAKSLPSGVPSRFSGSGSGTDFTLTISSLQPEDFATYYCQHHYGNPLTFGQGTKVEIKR shows EC50 strictly lower than 5 nM.
Fulfilled

Determine if TIGIT-3 chimeric antibody (antibody, human IgG1, kappa, V domains shown, also called 3VH + 3VL) VH: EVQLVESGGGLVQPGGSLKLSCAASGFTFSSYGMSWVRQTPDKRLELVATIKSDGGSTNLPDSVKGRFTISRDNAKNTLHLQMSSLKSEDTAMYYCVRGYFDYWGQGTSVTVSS VL: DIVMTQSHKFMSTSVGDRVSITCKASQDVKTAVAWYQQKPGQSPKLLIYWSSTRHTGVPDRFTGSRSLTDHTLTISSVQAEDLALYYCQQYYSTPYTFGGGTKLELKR shows EC50 strictly lower than 5 nM.
Fulfilled

Determine if huTIGIT-6-4 (antibody, human IgG1, kappa, V domains shown, Humanized IgG; also called 6VH6.M7 + 6VL1.M1) VH: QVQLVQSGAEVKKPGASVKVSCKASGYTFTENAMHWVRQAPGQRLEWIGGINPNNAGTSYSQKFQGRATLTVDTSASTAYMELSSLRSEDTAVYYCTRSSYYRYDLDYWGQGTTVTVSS VL: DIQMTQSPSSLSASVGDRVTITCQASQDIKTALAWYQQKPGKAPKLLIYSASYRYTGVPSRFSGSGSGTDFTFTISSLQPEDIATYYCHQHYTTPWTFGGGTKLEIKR shows EC50 strictly lower than 5 nM.
Not fulfilled

Determine if huTIGIT-3-1 (antibody, human IgG1, kappa, V domains shown, Humanized IgG; also called 3VH3.M4 + 3VL4.M6) VH: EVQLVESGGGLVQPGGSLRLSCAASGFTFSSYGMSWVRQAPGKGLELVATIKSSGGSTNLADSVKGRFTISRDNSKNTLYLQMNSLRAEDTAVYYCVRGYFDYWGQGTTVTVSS VL: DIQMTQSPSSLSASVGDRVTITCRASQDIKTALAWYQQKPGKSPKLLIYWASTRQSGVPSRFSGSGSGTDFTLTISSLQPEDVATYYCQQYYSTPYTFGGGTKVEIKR shows EC50 strictly lower than 5 nM.
Fulfilled

Determine if huTIGIT-6-1 (antibody, human IgG1, kappa, V domains shown, Humanized IgG; also called 6VH6.M4 + 6VL1.M1) VH: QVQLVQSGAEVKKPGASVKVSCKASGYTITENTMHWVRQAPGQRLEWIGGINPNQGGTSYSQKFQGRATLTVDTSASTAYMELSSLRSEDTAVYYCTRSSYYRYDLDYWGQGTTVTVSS VL: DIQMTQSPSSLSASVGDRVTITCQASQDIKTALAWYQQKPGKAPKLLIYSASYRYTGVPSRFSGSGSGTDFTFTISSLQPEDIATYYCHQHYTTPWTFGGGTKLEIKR shows EC50 strictly lower than 5 nM.
Fulfilled
